Taken from patent US20060172941A1.

protocol.summary: Heparin binding activity, Hi Trap Heparin HP column, NaCl step elution
reported.conditions: heparin column, step gradient in 10 mM NaH2PO4 pH 7
Where no end group is shown, it is not given here. [ ]: non-standard residue; d: D form.
observation.type: [NaCl] for elution (mM)
One number for each entry, in mM.

Recorded results for 8 sequences are shown here.
{"seq.string": "RKRAARARKRAARARKRAARR (listed as Homo sapiens) [ST100,083]", "unit.name": "mM", "[NaCl] for elution": 1100}
{"seq.string": "RRGRAARRGRAAKKK (listed as Homo sapiens) [ST100,078]", "unit.name": "mM", "[NaCl] for elution": 875}
{"seq.string": "RRGRAARRGRAAKKKPSQSSHPPLSTA (listed as Homo sapiens) [ST100,068]", "unit.name": "mM", "[NaCl] for elution": 875}
{"seq.string": "RKKAARARKKAARARKKAARRLGYVVSDGRGDYP (listed as Homo sapiens) [ST100,081]", "unit.name": "mM", "[NaCl] for elution": 1000}
{"seq.string": "RLGYVVSDGRGDYPKKKRRGRAARRGRAA [ST100,065, middle rotated replaced version of ST100,061]", "unit.name": "mM", "[NaCl] for elution": 750}
{"seq.string": "RRGRAAKKKRRGRAAKKK (listed as Homo sapiens) [ST100,082]", "unit.name": "mM", "[NaCl] for elution": 1000}
{"seq.string": "RRQRRRGRRRQRRRGKK (listed as Homo sapiens) [ST100,090]", "unit.name": "mM", "[NaCl] for elution": 1300}
{"seq.string": "RRGRAAKKKRRGRAAKKKPSQSSHPPLSTA (listed as Homo sapiens) [ST100,072]", "unit.name": "mM", "[NaCl] for elution": 1000}

# batch size: 6; output [NaCl] for elution per entry
1. RKGRRKGRRKGRRKGRRKGKK ([dR][dK]G[dR][dR][dK]G[dR][dR][dK]G[dR][dR][dK]G[dR][dR][dK]G[dK][dK]; listed as Homo sapiens) [ST100,087]
2. RAAKKRARAAKKRARAAKKRLGYVVSDGRGDYP (listed as Homo sapiens) [ST100,079]
3. RRGRARRGRARRGRARRGKK ([dR][dR]G[dR][dA][dR][dR]G[dR][dA][dR][dR]G[dR][dA][dR][dR]G[dK][dK]; listed as Homo sapiens) [ST100,085]
4. RRGRAARRGRAARRGRAAKKKPSQSSHPPLSTA (listed as Homo sapiens) [ST100,073]
5. PSQSSHPPLSTA ([dP][dS][dQ][dS][dS][dH][dP][dP][dL][dS][dT][dA]; listed as Homo sapiens) [ST100,059, retro inverso version of ST100,038]
6. RRGRAAKKKRRGRAAKKKRLGYVVSDGRGDYP [ST100,074]

1. 1500
2. 1000
3. 1100
4. 1000
5. 0
6. 1000

Could you tell me which [NaCl] for elution is on file for RRGRAARRGRAAKKKRLGYVVSDGRGDYP [ST100,064, retro-inverso form of ST100,061] ?
875
